target: Genome polyprotein (Poliovirus type 1 (strain Mahoney)) (UniProt P03300); test: poliovirus RdRp elongation inhibitors, primary screen, biochemical, fluorescence polarization, total intensity (AID 588519); conditions: poliovirus polymerase elongation, measured here: FP z-score, stronger effect = lower value; further: compound at 16.7 µg/mL
Sequence (P03300 1749-2209 limits assumed): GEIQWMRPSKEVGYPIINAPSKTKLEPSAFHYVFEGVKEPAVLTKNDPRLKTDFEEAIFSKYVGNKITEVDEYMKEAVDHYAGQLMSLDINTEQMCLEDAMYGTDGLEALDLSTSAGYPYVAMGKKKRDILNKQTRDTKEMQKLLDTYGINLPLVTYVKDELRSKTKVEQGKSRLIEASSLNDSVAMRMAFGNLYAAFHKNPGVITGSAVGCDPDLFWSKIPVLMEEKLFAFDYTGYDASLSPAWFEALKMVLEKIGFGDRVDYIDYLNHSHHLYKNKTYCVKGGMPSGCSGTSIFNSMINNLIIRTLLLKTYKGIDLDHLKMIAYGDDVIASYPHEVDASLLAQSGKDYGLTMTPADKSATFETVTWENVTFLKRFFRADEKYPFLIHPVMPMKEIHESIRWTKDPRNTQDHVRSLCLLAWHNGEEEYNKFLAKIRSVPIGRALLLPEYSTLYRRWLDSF
Screen size: about 150,000 compounds; about 1,000 (0.67%) were called active. Only a selection was taken, and actives are over-represented in it overall.
readoutType: z-score

Cc1ccc(C)c(NC(=O)C(c2ccccc2)N2CCCCC2C(N)=O)c1 (stereo not drawn); -0.5
N#Cc1c(/N=C/c2c(O)[nH]c(=O)[nH]c2=O)sc2c1CCC2; 1.2
CCCCN(C)C(=O)C1CCN(c2nn3cc(-c4ccc(OC)cc4)nc3s2)CC1; 0.4
CCCCOC(=O)Nc1nccs1; -0.4
CCOC(=O)c1c(NC(=O)c2cc(-c3ccc(Cl)cc3)on2)sc2c1CCCC2; -3
O=C(Nc1sc2c(c1C(=O)NCCc1ccccc1)CCC2)c1ccco1; 0.4
OC(c1nc2ccccc2[nH]1)C(O)C(O)C(O)c1nc2ccccc2[nH]1 (stereo not drawn); -0.6
N#CC1=C2Sc3ccccc3N2CC1=O; -1
CC(=O)Nc1c(C)ccc(NC(=O)C2C(C=C(C)C)C2(C)C)c1C (stereo not drawn); -0.1
Cc1ccccc1CN1CCN(CC(=O)NCc2cccs2)C1=O; -0.7
CC(c1ccccc1)n1c(N)c(C#N)c2nc3ccccc3nc21 (stereo not drawn); -1.4
CC(=O)Oc1c[n+]([O-])n(-c2ccccc2)n1; -0.6
CCOC(=O)C1(C(=O)OCC)C(c2ccccc2)CC(=O)CC1c1ccccc1 (stereo not drawn); -0.3
CC(C)OC(=O)C(C)n1cnc2sc(-c3ccccc3)cc2c1=O (stereo not drawn); 0
CC(=O)Nc1ccc(NC(=O)C(C)OC(=O)Cc2c[nH]c3ccccc23)cc1 (stereo not drawn); 0
Cc1nc2ccccc2nc1OCC(=O)N(C1CCCCC1)C1CCCCC1; -0.3
CCCN(Cc1nc2cc(Cl)ccc2c(=O)[nH]1)C(=S)NC; -0.3
CC(C)CCSc1nc2ncn(C)c2c(=O)[nH]1; 0.4
CCOc1ccc(N2CC(c3nc4ccccc4n3CCOc3ccc(OC)cc3)CC2=O)cc1 (stereo not drawn); 0.9
Clc1nc(Nc2ccccc2)sc1/C=N/N1CCOCC1; 5.6
CCOC(=O)c1sc(NC(=O)/C=C/c2ccc(Cl)cc2)cc1C; 0.3
Clc1nc2ccccc2c(N2CCCCC2)c1CNC1CC1; 0.8
CCN1CCN(C(=O)C2CCCCC2C(=O)O)CC1 (stereo not drawn); 0
CCC(C)NC(=O)C1c2ccccc2C(=O)N1Cc1ccccc1 (stereo not drawn); 0.2
CCN(C(=O)CN1CCCCC1)c1nc2ccc(C)cc2s1; -0.3
CCc1ccccc1N1CC(c2nc3ccccc3n2CCCCOc2ccccc2)CC1=O (stereo not drawn); -7.7
CCOc1ccc(S(=O)(=O)NCCSc2ccccc2)cc1; -0.1
CC(C)(C)c1ccc(C(=O)NCCn2c(N)c(C#N)c3nc4ccccc4nc32)cc1; 0.5
CCOCCCNC(=O)c1c(NC(=O)Cc2coc3ccc(C)cc23)sc2c1CCC2; 0.1
CCOC(=O)C(N)Cc1c[nH]c2ccccc12 (stereo not drawn); -0.3
O=C1CCC(=O)N1OCC1CCCN2CCCCC12 (stereo not drawn); 0.1
Cc1sc2nc(COC(=O)C(NC(=O)c3ccco3)C(C)C)[nH]c(=O)c2c1C (stereo not drawn); -1.2
CCOCCCNC(=O)c1c(NC(=O)Cc2coc3c(C)c(C)ccc23)sc2c1CCC2; 0.1
N#CC(=C1C(=O)c2ccccc2C1=O)c1nc2ccccc2[nH]1; -2.3
CN(C)/N=C/C=C1\CCC/C(=C\C=N\N(C)C)C1=O; 6.6
CC1CC(C)CN(C(=O)COC(=O)c2ccc(C#N)cc2)C1 (stereo not drawn); -0.2
CC(NC(=O)Nc1cccnc1)N1C(=O)C2C3C=CC(C3)C2C1=O (stereo not drawn); -0.4
COc1ccc(-c2cc(C(=O)Nc3sc4c(c3C(N)=O)CCCC4)no2)cc1; -0.5
N#Cc1c(N)n(Cc2ccc(Cl)cc2)c2nc3ccccc3nc12; -4.3
NC(=S)N1CCCCC1; -0.1
CCSc1nsc(SCC)c1C(=O)O; -1.5
CCOC(=O)C1(C(=O)OCC)CCN(S(=O)(=O)c2ccc(C)cc2)c2ccccc2C1=O; 0.2
COc1ccc(S(=O)(=O)N2CCC(C(=O)N3CCCC3)CC2)cc1OC; -0.6
